Assay Name: In vitro release of stabilizers from implantable devices and disassembly of the devices (Contemplated Examples)
Format: physicochemical
Stated Conditions: in vitro, 37° C.
Parameter Measured: duration for which stabilizer level (pH or concentration) is maintained in device

                                   compound             result
0  [H]/N=C(\N/C(=N/[H])NCCCCCCNC(=N)NC(=N)Nc1ccc(Cl)cc1)Nc1ccc(Cl)cc1 [chlorhexidine, Chlorhexidine]  at least 2 months
1             O=C(O)c1ccccc1 [benzoic acid]  at least 2 months
